Parameter measured: pKi
Formally, pKi is defined as -log10 of the concentration c, with c in mol/L.

The recorded pKi with Translocator protein (Rattus norvegicus) for `COc1ccc(OC)c(CN(C(C)=O)c2cc(F)ccc2Oc2ccccc2)c1` was 10.37

* * *

Method description: Partition coefficient (logP)
Format: physicochemical
Study conditions: octanol/water
Parameter measured: logP
Lab note: record the figure alone, no unit after it.

Value of logP reported for the compound `COc1ccc(OCCF)c(CN(C(C)=O)c2cc(F)ccc2Oc2ccccc2)c1` is 3.81

Noted for `COc1ccc(OC)c(CN(C(C)=O)c2cc(F)ccc2Oc2ccccc2)c1` : its logP reads 3.65

Input `COc1ccc(OCF)c(CN(C(C)=O)c2cc(F)ccc2Oc2ccccc2)c1` . Output logP: 3.7
